Cited source for all entries: patent EP1004309A1

# assay-info: Dissolution test: solubility of israpafant in aqueous solutions containing additives, by HPLC
# Assay type: physicochemical
# settings: 0.1% phosphate buffer with dissolved additive, 25 °C, pH 7, aqueous with cosolvent or surfactant or cyclodextrin, thermodynamic from solid, 0.5% polysorbate 80 in 0.1% phosphate buffer (pH 7)
property-name: solubility
Express your answer as a number followed by its unit.

Input: In one line, give reported solubility of the entry Cc1nnc2n1-c1sc(CCc3ccc(CC(C)C)cc3)cc1C(c1ccccc1Cl)=NC2C (stereo not shown) [israpafant] .
Output: 66.9 µg/mL

----------
# assay-info: Dissolution test: solubility of israpafant in aqueous solutions containing additives, by HPLC
# Type: physicochemical
# settings: 0.1% phosphate buffer with dissolved additive, 25 °C, pH 7, aqueous with cosolvent or surfactant or cyclodextrin, thermodynamic from solid, 0.5% Tyloxapol in 0.1% phosphate buffer (pH 7)
property-name: solubility (µg/mL)
Give the value in µg/mL but do not write µg/mL after it.

Input: In one line, give reported solubility of the entry Cc1nnc2n1-c1sc(CCc3ccc(CC(C)C)cc3)cc1C(c1ccccc1Cl)=NC2C (stereo not shown) [israpafant] .
Output: 29.5

----------
# assay-info: Dissolution test: solubility of israpafant in aqueous solutions containing additives, by HPLC
# Format: physicochemical
# settings: 0.1% phosphate buffer with dissolved additive, 25 °C, pH 7, aqueous with cosolvent or surfactant or cyclodextrin, thermodynamic from solid, 0.5% HCO60 in 0.1% phosphate buffer (pH 7)
# Procedure: In 0.1% phosphate buffer (pH 7) were dissolved the additives shown in Table 2 in a proportion of 0.5% (0.5% and 4% in the sole case of polysorbate). In the same manner as above, israpafant was suspended and dissolved, after which the solubility of israpafant was measured by HPLC. • column: YMC AM-302 (4.6×150 mm) • mobile phase: acetonitrile:0.1M ammonium acetate-87:13 • detection: UV 244 nm • column temperature:35°C • flow rate: 0.7 ml/min • internal standard:1,3,5-triphenylbenzene
property-name: solubility (µg/mL)
Give the value in µg/mL but do not write µg/mL after it.

Input: In one line, give reported solubility of the entry Cc1nnc2n1-c1sc(CCc3ccc(CC(C)C)cc3)cc1C(c1ccccc1Cl)=NC2C (stereo not shown) .
Output: 47.3

----------
# assay-info: Dissolution test: solubility of israpafant in buffers, by HPLC
# Format: physicochemical
# settings: 0.1% acetate, phosphate and borate buffers, 25 °C, aqueous buffer, thermodynamic from solid; each buffer (pH 4, 5, 6, 7, 8 and 9); below detection limit by HPLC
property-name: solubility

Input: In one line, give reported solubility of the entry Cc1nnc2n1-c1sc(CCc3ccc(CC(C)C)cc3)cc1C(c1ccccc1Cl)=NC2C (stereo not shown) [israpafant] .
Output: < 0.05 µg/mL
